- Target entity: Left-right determination factor 2 (Homo sapiens)
- Test description: LEFTY2 binders on small-molecule microarrays, primary screen, biochemical, small-molecule microarray, 635 nm fluorescence scan (AID 1110)
- Condition context: LEFTY2 binding, higher = more signal
Outcome label depends on composite z-score relative to 0.7: at/above gives rule met, below gives rule not met.

- Molecule: "CC(C)OC(=O)C=C1C[C@@H](c2ccccn2)O[C@@H](c2ccccn2)O1"
  Assigned label: "rule met"
- Molecule: "C=CCNC(=O)[C@@H]1[C@H]2C(=O)O[C@H](c3ccccc3)[C@H](c3ccccc3)N2[C@H](c2ccc(O)cc2)[C@@]12C(=O)Nc1ccc(C#CCNC(N)=O)cc12"
  Assigned label: "rule not met"
- Molecule: "O=C(c1ccccc1)N1C(=O)[C@]2(COC(c3ccc(OCCCO)cc3)=N2)Cc2ccccc21"
  Assigned label: "rule not met"
- Molecule: "NC(=O)N1C(=O)C2C(C1=O)C1C=C(c3ccc(CO)cc3)C2C(c2cccs2)N1Cc1cccc(OC(F)(F)F)c1 (stereo not drawn)"
  Assigned label: "rule not met"
- Molecule: "C#C[C@H](O[Si](C#Cc1ccc(Oc2ccccc2)cc1)(C(C)C)C(C)C)c1ccccc1"
  Assigned label: "rule met"
- Molecule: "COCCOC(=O)N1C(=O)[C@@]2(c3cc(C#CCC(C(=O)OC)C(=O)OC)ccc31)[C@H](C(=O)N1CCN(c3ncccn3)CC1)[C@H]1C(=O)O[C@H](c3ccccc3)[C@H](c3ccccc3)N1[C@@H]2c1ccccc1OCCO"
  Assigned label: "rule met"
- Molecule: "CN1C(=O)C2C=CC(C(O)C3CC=CCC3)N(N(c3ccccc3)c3ccccc3)C2C1=O (stereo not drawn)"
  Assigned label: "rule not met"

###

- Test system: Neuregulin-1 EGF-like domain
- Test description: binders of neuregulin-1 EGF-like domain, primary screen, biochemical, small-molecule microarray, 635 nm fluorescence (AID 1081);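 note: binding of the protein to compounds printed on small-molecule microarray slides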
- Condition context: small-molecule microarray binding, higher = more signal

- Molecule: "OCCCC1=CC(c2cccs2)N(Cc2cc3c(cc2Br)OCO3)CC1 (centres undefined)"
  Target entity: "Neuregulin-1 EGF-like domain"
  composite z-score: 1.04
- Molecule: "C=C[C@@H](COC(=O)OC(C)(C)C)N(Cc1ccc(OC)cc1)S(=O)(=O)c1ccc(Br)cc1"
  Target entity: "Neuregulin-1 EGF-like domain"
  composite z-score: 0.8
- Molecule: "CC1(C)[C@@H]2CC(C(O)C3C=CC4C(=O)N(c5ccccc5)C(=O)C4N3Nc3ccc([N+](=O)[O-])cc3)=C[C@H]1C2 (some centres undefined)"
  Target entity: "Neuregulin-1 EGF-like domain"
  composite z-score: 1.2
- Molecule: "C=C(/C(=C/C[C@H](OC(C)=O)c1ccccc1OCCO)c1cnc2ccccc2c1)C(C)C"
  Target entity: "Neuregulin-1 EGF-like domain"
  composite z-score: 0.87

###

- Test description: P. aeruginosa biofilm formation inhibitors, primary screen, PAO1 strain, BacTiter-Glo luminescence, LB-PBS (AID 1144)
- Condition context: 12 h, higher = more signal
Below: a set of entries, each annotated with reported z-score.

- Molecule: "COCCOC(=O)N1C(=O)[C@@]2(c3ccccc31)[C@H](c1ccc(O)cc1)N1[C@H](c3ccccc3)[C@H](c3ccccc3)OC(=O)[C@H]1[C@@H]2C(=O)Nc1nc2ccccc2s1"
  z-score: 0.272
- Molecule: "COC(=O)[C@@]1(Cc2ccccc2)N=C(c2ccc(OCCCO)cc2)O[C@H]1c1ccccc1"
  z-score: 0.35
- Molecule: "[N-]=[N+]=NCc1ccccc1[C@@H]1OC(c2ccc(OCCCO)cc2)=N[C@]1(Cc1ccccc1)C(=O)NCC(O)CO (some centres not stated)"
  z-score: 0.0756
- Molecule: "CC1CC/C=C\\[C@H]2OC34C=CCN(Cc5ccccc5)C(=O)[C@H]3N(CCCO)C(=O)[C@@H]4C2C(=O)O1 (some centres not stated)"
  z-score: 0.446
- Molecule: "NC(=O)[C@@H]1[C@H]2C(=O)O[C@H](c3ccccc3)[C@H](c3ccccc3)N2[C@H](c2ccc(O)cc2)[C@@]12C(=O)Nc1ccccc12"
  z-score: -0.609
- Molecule: "NC(=O)NCC#Cc1ccc2c(c1)[C@]1(C(=O)N2)[C@H](c2ccccc2OCCO)N2[C@H](c3ccccc3)[C@H](c3ccccc3)OC(=O)[C@H]2[C@@H]1C(=O)Nc1nc2ccccc2s1"
  z-score: -1.39
- Molecule: "COc1ccc(CCNC(=O)[C@@]2(Sc3ccc(C)cc3)CC(=O)N(C3Cc4ccccc4C3)[C@@H]2c2ccc(CO)cc2I)cc1"
  z-score: 0.74

Entry source: PubChem BioAssay
